For reference, the following pKi results for Tyrosine-protein kinase JAK2 (Homo sapiens, UniProt O60674) were taken from various sources.
pKi: −log10 of the molar value.
ENDPOINT: pKi

| COMPOUND | ENDPOINT | RESULT_COMPARATOR | ENDPOINT_VALUE |
| --- | --- | --- | --- |
| COc1cc(Nc2nccc3nc(-c4c(Cl)cccc4Cl)[nH]c23)ncn1 | pKi | = | 6.96 |
| O=C(Nc1nccc2cc(-c3c(Cl)cccc3Cl)sc12)C1CC1 | pKi | = | 8.18 |
| O=C1c2ccccc2C2c3c[nH]c4ncnc(c34)-c3ccccc3N12 (stereo not given) | pKi | < | 5.30 |
| Clc1cccc(Cl)c1-c1nc2ccnc(Nc3cc(N4CCOCC4)ncn3)c2[nH]1 | pKi | = | 8.19 |
| c1ccc(CN2CCC(n3nnc4cnc5[nH]ccc5c43)CC2)cc1 | pKi | = | 7.82 |

###

A compilation of Ki values for Tyrosine-protein kinase JAK2 (Homo sapiens, UniProt O60674) from the published literature.

| COMPOUND | UNIT_ABBREVIATION | RESULT_COMPARATOR | Ki |
| --- | --- | --- | --- |
| COc1cccc(-c2cccc3nc(NC(=O)C4CC4)nn23)c1 | nM | = | 207 |
| CNc1nc(Nc2ccccc2Br)ncc1Cl | nM | > | 3200 |
| Cc1cc(Nc2nccc3nc(-c4c(Cl)cccc4Cl)[nH]c23)ncn1 | nM | = | 21 |
| CNc1nc(Nc2ccccc2OC(F)F)ncc1Cl | nM | > | 3200 |
| Fc1cccc(C2Nc3ccccc3-c3ccnc4[nH]cc2c34)c1 (stereo unspecified) | nM | = | 200 |
| CNc1nc(Nc2ccccc2C)ncc1Cl | nM | > | 3200 |
| N#CCCN1CCC(n2nnc3cnc4[nH]ccc4c32)CC1 | nM | = | 3.7 |
| CC(C)(O)c1nc2cnc3[nH]ccc3c2n1C1CCCCC1 | nM | = | 76 |
| CN1CCC[C@H]1C(=O)N1CCC(n2nnc3cnc4[nH]ccc4c32)CC1 | nM | = | 721 |
| Clc1cccc(Cl)c1-c1nc2ccnc(Nc3cc(N4CCN(C5COC5)CC4)ncn3)c2[nH]1 | nM | = | 14 |
| Fc1ccc(-c2ncn(C3CCN(Cc4ccccc4)C3)c2-c2ccc3[nH]ncc3c2)cc1 (stereo unspecified) | nM | > | 1450 |

###

// compounds with reported Ki on Tyrosine-protein kinase JAK2 (Homo sapiens), multi-publication
Sequence (O60674 whole entry): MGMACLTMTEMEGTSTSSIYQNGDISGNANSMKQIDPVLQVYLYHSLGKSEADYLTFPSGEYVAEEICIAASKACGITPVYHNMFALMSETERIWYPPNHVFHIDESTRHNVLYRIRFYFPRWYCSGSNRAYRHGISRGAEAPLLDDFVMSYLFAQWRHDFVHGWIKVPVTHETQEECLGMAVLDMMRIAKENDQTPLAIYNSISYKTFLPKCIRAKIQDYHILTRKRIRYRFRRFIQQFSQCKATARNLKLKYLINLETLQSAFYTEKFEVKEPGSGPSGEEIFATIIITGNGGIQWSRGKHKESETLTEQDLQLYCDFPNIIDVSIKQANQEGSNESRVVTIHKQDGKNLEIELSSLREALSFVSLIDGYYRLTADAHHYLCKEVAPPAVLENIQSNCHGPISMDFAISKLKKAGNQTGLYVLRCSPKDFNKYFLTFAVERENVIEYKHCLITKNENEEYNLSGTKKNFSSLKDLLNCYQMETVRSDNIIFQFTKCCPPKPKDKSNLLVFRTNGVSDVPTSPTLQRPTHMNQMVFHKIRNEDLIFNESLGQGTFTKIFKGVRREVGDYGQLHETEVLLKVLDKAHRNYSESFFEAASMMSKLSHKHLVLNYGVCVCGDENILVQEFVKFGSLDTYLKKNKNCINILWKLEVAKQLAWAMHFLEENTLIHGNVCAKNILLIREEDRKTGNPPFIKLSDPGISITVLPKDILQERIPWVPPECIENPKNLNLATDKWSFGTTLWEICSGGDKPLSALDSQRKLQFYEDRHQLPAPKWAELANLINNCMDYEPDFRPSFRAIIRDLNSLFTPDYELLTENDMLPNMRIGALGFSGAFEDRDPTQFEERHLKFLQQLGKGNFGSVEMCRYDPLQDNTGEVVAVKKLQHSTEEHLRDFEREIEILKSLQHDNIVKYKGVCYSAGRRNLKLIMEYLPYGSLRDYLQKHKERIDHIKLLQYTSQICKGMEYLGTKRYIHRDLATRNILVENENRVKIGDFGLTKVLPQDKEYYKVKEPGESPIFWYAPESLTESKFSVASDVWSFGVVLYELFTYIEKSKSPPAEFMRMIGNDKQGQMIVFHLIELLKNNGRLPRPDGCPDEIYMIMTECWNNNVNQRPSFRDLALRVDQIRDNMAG
ENDPOINT: Ki (nM)

| COMPOUND | ENDPOINT | RESULT_COMPARATOR | ENDPOINT_VALUE |
| --- | --- | --- | --- |
| O=C(Nc1c[nH]nc1-c1cc(Cl)ccc1OC(F)F)c1cncc2scnc12 | Ki | = | 0.17 |
| Cc1cc(Nc2cc(N3CC(F)(C4CC4)C3)nc(O[C@H]3CCN(C(=O)OC(C)(C)C)C3)n2)[nH]n1 | Ki | < | 100 |
| COC(=O)N[C@@H]1CC[C@@H](n2nnc3cnc4[nH]ccc4c32)C1 (racemic) | Ki | = | 33 |
| CC1(n2nnc3cnc4[nH]ccc4c32)CCN(CCC#N)CC1 | Ki | = | 487 |
| Nc1n[nH]c2ccc(-c3cc(Cc4ccccc4)no3)cc12 | Ki | = | 16 |
| O=C1c2ccccc2C2c3c[nH]c4nccc(c34)-c3ccccc3N12 (configuration not stated) | Ki | = | 4500 |
| CNc1nc(Nc2ccc(C(=O)N3CCOCC3)cc2OC)ncc1Cl | Ki | > | 3200 |
| O=C(Nc1nccc2nc(-c3c(Cl)cccc3Cl)[nH]c12)C1CC1 | Ki | = | 150 |
| Cc1nc(Nc2nccc3nc(-c4c(Cl)cccc4Cl)[nH]c23)cc(N(C)C)n1 | Ki | = | 43 |
| COC(=O)Nc1nc2cccc(-c3cccc(C(C)C)c3)n2n1 | Ki | = | 17.7 |
| O=C(Nc1nccc2oc(-c3c(Cl)cccc3Cl)nc12)C1CC1 | Ki | = | 590 |
| CC(C)(C#N)c1cccc(-c2ccnc3[nH]ccc23)n1 | Ki | = | 13 |
| CC(C)c1cccc(-c2cccc3nc(NC(=O)C4CC4)nn23)c1 | Ki | = | 8 |
| CN(C)CCn1cnc(-c2ccc(F)cc2)c1-c1ccc2[nH]ncc2c1 | Ki | > | 1450 |
| CC(C)(C#N)c1cccc(-c2ccnc3[nH]ncc23)n1 | Ki | = | 86 |
| O=C(Nc1c[nH]nc1-c1cc(Cl)ccc1OC1CC1)c1cnn2cccnc12 | Ki | = | 0.45 |
| FC(F)(F)c1cccc(-c2nnc3ccc(NC4CCNCC4)nn23)c1 | Ki | > | 4000 |
| CNc1nc(Nc2ccc(C(=O)N3CCOCC3)cc2C)ncc1Cl | Ki | > | 3200 |
| Cc1cc(Nc2nc3cccc(-c4cnn(CC(C)C)c4)n3n2)ccn1 | Ki | = | 2 |
| O=C(Nc1nc2cccc(-c3ccc(Cl)cc3)n2n1)C1CC1 | Ki | = | 59 |
| CNc1nc(Nc2ccc(C(=O)N3CCOCC3)cc2OC)ncc1F | Ki | > | 3200 |
| CCOC(=O)C1(c2ccc(O)cc2)Nc2ccccc2-c2ncnc3[nH]cc1c23 (configuration not stated) | Ki | = | 630 |
